Origin of the recorded values: patent US20240228468A1

# target_system: Human M4 (Homo sapiens)
# Construct: expressed in transfected cells; host or cells: CHO-K1 (ATCC), co-transfected with chimeric G protein Gqi5
# Sequence (P08173 whole entry): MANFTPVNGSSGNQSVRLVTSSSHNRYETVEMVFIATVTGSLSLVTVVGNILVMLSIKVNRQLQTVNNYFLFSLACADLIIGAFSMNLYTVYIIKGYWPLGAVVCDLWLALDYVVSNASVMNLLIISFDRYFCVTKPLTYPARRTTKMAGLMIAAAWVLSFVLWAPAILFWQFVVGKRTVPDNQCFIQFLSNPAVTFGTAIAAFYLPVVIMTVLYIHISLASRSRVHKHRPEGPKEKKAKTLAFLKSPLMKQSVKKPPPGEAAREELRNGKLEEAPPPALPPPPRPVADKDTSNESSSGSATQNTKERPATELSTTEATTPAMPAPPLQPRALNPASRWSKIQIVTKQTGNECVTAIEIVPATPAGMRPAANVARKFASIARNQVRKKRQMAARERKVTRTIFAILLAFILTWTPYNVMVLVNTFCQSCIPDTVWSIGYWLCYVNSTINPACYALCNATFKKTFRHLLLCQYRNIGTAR
# experimental_protocol: mAChR M4 cell-based functional assay (calcium flux, antagonism of EC80 acetylcholine response)
# run_parameters: M4/Gqi5/CHO-K1 cells; % ACh maximum at 30 μM; read-out: Human M4 Emin (% ACh maximum at 30 μM)
Below, each entry is listed alongside its reported remaining activity at 30 µM.
assay_readout: remaining activity at 30 µM (%)

{"test_smiles": "[2H]C([2H])(C1CCOCC1)N1C[C@H]2C[C@H](Nc3ccc(-c4ccc(C(=O)NC)c(F)c4)nn3)C[C@H]2C1", "target_system": "Human M4 (Homo sapiens)", "assay_readout": "remaining activity at 30 µM", "measured": 4}
{"test_smiles": "[2H]C([2H])(C1CCOCC1)N1C[C@H]2C[C@H](Nc3ccc(-c4cc(C(=O)NC)ccc4F)nn3)C[C@H]2C1", "target_system": "Human M4 (Homo sapiens)", "assay_readout": "remaining activity at 30 µM", "measured": 5}
{"test_smiles": "NC(=O)c1ccc(-c2ccc(N[C@H]3C[C@@H]4CN(CC5CCOCC5)C[C@@H]4C3)nn2)c(F)c1", "target_system": "Human M4 (Homo sapiens)", "assay_readout": "remaining activity at 30 µM", "measured": 4}
{"test_smiles": "[2H]C1([2H])CC(C([2H])([2H])N2C[C@H]3C[C@H](Nc4ccc(-c5cc(F)cc(C(=O)NC)c5)nn4)C[C@H]3C2)CC([2H])([2H])O1", "target_system": "Human M4 (Homo sapiens)", "assay_readout": "remaining activity at 30 µM", "measured": 5}
{"test_smiles": "O=C(Nc1cc(F)c(F)c(-c2ccc(N[C@H]3C[C@@H]4CN(CC5CCOCC5)C[C@@H]4C3)nn2)c1)C1CC(F)(F)C1", "target_system": "Human M4 (Homo sapiens)", "assay_readout": "remaining activity at 30 µM", "measured": 4}
{"test_smiles": "O=C(c1ccc(-c2ccc(N[C@H]3C[C@@H]4CN(CC5CCOCC5)C[C@@H]4C3)nn2)cc1)N1CCCCC1", "target_system": "Human M4 (Homo sapiens)", "assay_readout": "remaining activity at 30 µM", "measured": 4}

----------
# target_system: Human M4 (Homo sapiens)
# experimental_protocol: mAChR M4 cell-based functional assay (calcium flux, antagonism of EC80 acetylcholine response)
# run_parameters: M4/Gqi5/CHO-K1 cells; concentration-dependent decrease of the response elicited by an EC80 concentration of acetylcholine

{"compound": "[2H]C([2H])([C@H]1COCCO1)N1C[C@H]2C[C@H](Nc3ccc(-c4cccc(C(=O)NC)c4)nn3)C[C@H]2C1 [Compound A77]", "IC50, nM": 45}
{"compound": "[2H]C1([2H])CC(C([2H])([2H])N2C[C@H]3C[C@H](Nc4ccc(-c5cc(F)cc(C(=O)NC)c5)nn4)C[C@H]3C2)CC([2H])([2H])O1 [Compound A82]", "IC50, nM": 29}
{"compound": "O=C(Nc1cc(F)c(F)c(-c2ccc(N[C@H]3C[C@@H]4CN(CC5CCOCC5)C[C@@H]4C3)nn2)c1)C1CC(F)(F)C1 [Compound A14]", "IC50, nM": 160}
{"compound": "N#CCC(=O)Nc1cc(F)c(F)c(-c2ccc(N[C@H]3C[C@@H]4CN(CC5CCOCC5)C[C@@H]4C3)nn2)c1 [Compound A16]", "IC50, nM": 47}
{"compound": "[2H]C([2H])(C1CCOCC1)N1C[C@H]2C[C@H](Nc3ccc(-c4cccc(C(=O)NC5CC5)c4)nn3)C[C@H]2C1 [Compound A33]", "IC50, nM": 22}
{"compound": "[2H]C([2H])(C1CCOC(C)(C)C1)N1C[C@H]2C[C@H](Nc3ccc(-c4cccc(C(=O)NC)c4)nn3)C[C@H]2C1 (stereo partly drawn) [Compound A75]", "IC50, nM": 3.4}

----------
# target_system: Human M4 (Homo sapiens)
# Construct: expressed in transfected cells; host or cells: CHO-K1 (ATCC), co-transfected with chimeric G protein Gqi5
# experimental_protocol: mAChR M4 cell-based functional assay (calcium flux, antagonism of EC80 acetylcholine response)
# run_parameters: M4/Gqi5/CHO-K1 cells; % ACh maximum at 30 μM; read-out: Human M4 Emin (% ACh maximum at 30 μM)
assay_readout: remaining activity at 30 µM (%)

{"compound": "[2H]C([2H])([C@@H]1CCCOC1)N1C[C@H]2C[C@H](Nc3ccc(-c4cc(F)cc(C(=O)NC)c4)nn3)C[C@H]2C1", "assay_readout": "remaining activity at 30 µM", "measured": 5}
{"compound": "[2H]C([2H])([C@H]1COCCO1)N1C[C@H]2C[C@H](Nc3ccc(-c4cccc(C(=O)NC)c4)nn3)C[C@H]2C1", "assay_readout": "remaining activity at 30 µM", "measured": 4}
{"compound": "[2H]C([2H])([C@@H]1CCCCO1)N1C[C@H]2C[C@H](Nc3ccc(-c4cc(F)cc(C(=O)NC)c4)nn3)C[C@H]2C1", "assay_readout": "remaining activity at 30 µM", "measured": 4}
{"compound": "O=C(Nc1cc(F)c(F)c(-c2ccc(N[C@H]3C[C@@H]4CN(CC5CCOCC5)C[C@@H]4C3)nn2)c1)C1(F)CC1", "assay_readout": "remaining activity at 30 µM", "measured": 4}
{"compound": "CCNC(=O)c1cccc(-c2ccc(N[C@H]3C[C@@H]4CN(CC5CCOCC5)C[C@@H]4C3)nn2)c1", "assay_readout": "remaining activity at 30 µM", "measured": 4}
{"compound": "[2H]C([2H])([C@H]1CCCOC1)N1C[C@H]2C[C@H](Nc3ccc(-c4cc(F)cc(C(=O)NC)c4)nn3)C[C@H]2C1", "assay_readout": "remaining activity at 30 µM", "measured": 6}
{"compound": "CCN(CC)C(=O)c1ccc(-c2ccc(N[C@H]3C[C@@H]4CN(CC5CCOCC5)C[C@@H]4C3)nn2)c(F)c1", "assay_readout": "remaining activity at 30 µM", "measured": 4}
{"compound": "[2H]C([2H])(C1CCOCC1)N1C[C@H]2C[C@H](Nc3ccc(-c4ccccc4NC(=O)CC)nn3)C[C@H]2C1", "assay_readout": "remaining activity at 30 µM", "measured": 4}
{"compound": "O=C(c1cc(F)c(F)c(-c2ccc(N[C@H]3C[C@@H]4CN(CC5CCOCC5)C[C@@H]4C3)nn2)c1)N1CC(F)(F)C1", "assay_readout": "remaining activity at 30 µM", "measured": 4}
{"compound": "CC(=O)Nc1ccc(-c2ccc(N[C@H]3C[C@@H]4CN(Cc5ccccc5C(F)(F)F)C[C@@H]4C3)nn2)cc1", "assay_readout": "remaining activity at 30 µM", "measured": 10}
{"compound": "[2H]C([2H])(C1CCOCC1)N1C[C@H]2C[C@H](Nc3ccc(-c4cccc(NC(C)=O)c4)nn3)C[C@H]2C1", "assay_readout": "remaining activity at 30 µM", "measured": 3}
{"compound": "[2H]C([2H])(C1CCOCC1)N1C[C@H]2C[C@H](Nc3ccc(-c4cc(F)c(C(N)=O)c(F)c4)nn3)C[C@H]2C1", "assay_readout": "remaining activity at 30 µM", "measured": 4}
{"compound": "[2H]C([2H])(C1CC(C)(C)OC(C)(C)C1)N1C[C@H]2C[C@H](Nc3ccc(-c4cccc(C(=O)NC)c4)nn3)C[C@H]2C1", "assay_readout": "remaining activity at 30 µM", "measured": 4}
{"compound": "CC(=O)Nc1ccc(-c2ccc(N[C@H]3C[C@@H]4CN(Cc5cccc(F)c5)C[C@@H]4C3)nn2)cc1", "assay_readout": "remaining activity at 30 µM", "measured": 4}
{"compound": "[2H]C([2H])(C1CCOCC1)N1C[C@H]2C[C@H](Nc3ccc(-c4cccc(C(=O)NC(C)C)c4)nn3)C[C@H]2C1", "assay_readout": "remaining activity at 30 µM", "measured": 5}
{"compound": "CC1(O)CN(C(=O)c2ccc(-c3ccc(N[C@H]4C[C@@H]5CN(CC6CCOCC6)C[C@@H]5C4)nn3)cc2)C1", "assay_readout": "remaining activity at 30 µM", "measured": 3}
{"compound": "[2H]C([2H])([C@H]1CCCCO1)N1C[C@H]2C[C@H](Nc3ccc(-c4cccc(C(=O)NC)c4)nn3)C[C@H]2C1", "assay_readout": "remaining activity at 30 µM", "measured": 4}
{"compound": "[2H]C([2H])(C1CCOCC1)N1C[C@H]2C[C@H](Nc3ccc(-c4cccc(C(=O)NCC)c4)nn3)C[C@H]2C1", "assay_readout": "remaining activity at 30 µM", "measured": 4}
{"compound": "CCNC(=O)c1ccccc1-c1ccc(N[C@H]2C[C@@H]3CN(CC4CCOCC4)C[C@@H]3C2)nn1", "assay_readout": "remaining activity at 30 µM", "measured": 6}
{"compound": "[2H]C1([2H])CC(C([2H])([2H])N2C[C@H]3C[C@H](Nc4ccc(-c5cccc(C(=O)NC)c5)nn4)C[C@H]3C2)CC([2H])([2H])O1 (single isomer, unassigned)", "assay_readout": "remaining activity at 30 µM", "measured": 4}
{"compound": "O=C(Nc1ccc(-c2ccc(N[C@H]3C[C@@H]4CN(CC5CCOCC5)C[C@@H]4C3)nn2)cc1)C1CC1", "assay_readout": "remaining activity at 30 µM", "measured": 3}
{"compound": "[2H]C([2H])([C@@H]1CCCOC1)N1C[C@H]2C[C@H](Nc3ccc(-c4cccc(C(=O)NC)c4)nn3)C[C@H]2C1", "assay_readout": "remaining activity at 30 µM", "measured": 5}
{"compound": "CN(C)C(=O)c1ccc(-c2ccc(N[C@H]3C[C@@H]4CN(CC5CCOCC5)C[C@@H]4C3)nn2)c(F)c1", "assay_readout": "remaining activity at 30 µM", "measured": 5}
{"compound": "CCNC(=O)c1ccc(-c2ccc(N[C@H]3C[C@@H]4CN(CC5CCOCC5)C[C@@H]4C3)nn2)cc1", "assay_readout": "remaining activity at 30 µM", "measured": 3}
